# MEASURED TARGET: mouse PPARα (Mus musculus, UniProt P23204)
# Construct: amino acids 167-468 for hs and m; expressed in transfected cells; host or cells: CV-1
# Sequence (P23204 167-468): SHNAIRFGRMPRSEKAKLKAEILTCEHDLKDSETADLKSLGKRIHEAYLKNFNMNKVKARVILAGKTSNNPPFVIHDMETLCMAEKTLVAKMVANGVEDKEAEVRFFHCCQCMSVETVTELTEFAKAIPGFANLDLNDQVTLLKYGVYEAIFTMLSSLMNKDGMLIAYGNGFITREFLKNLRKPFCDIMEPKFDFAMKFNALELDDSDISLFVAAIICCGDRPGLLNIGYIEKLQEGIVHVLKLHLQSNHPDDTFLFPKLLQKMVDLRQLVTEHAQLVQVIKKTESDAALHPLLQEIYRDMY
# PROCEDURE DETAILS: GAL4-PPAR chimera transactivation assay in CV-1 cells at 10% or 0.1% serum (Example 4)
# Type: cell-based
# RUN CONDITIONS: 10% serum, read-out: GAL4-chimera (mouse) EC50 (μM) hPPARα
QUANTITY NAME: EC50

Given the entry Cc1cc(C(=O)CCc2sc(-c3ccc(C(F)(F)F)cc3)nc2C(C)C)ccc1OCC(=O)O , report its measured EC50.
> 10 µM

====

# MEASURED TARGET: rat PPARγ (Rattus norvegicus, UniProt O88275)
# Construct: expressed in transfected cells; host or cells: CV-1
# Sequence (O88275 238-503 limits assumed): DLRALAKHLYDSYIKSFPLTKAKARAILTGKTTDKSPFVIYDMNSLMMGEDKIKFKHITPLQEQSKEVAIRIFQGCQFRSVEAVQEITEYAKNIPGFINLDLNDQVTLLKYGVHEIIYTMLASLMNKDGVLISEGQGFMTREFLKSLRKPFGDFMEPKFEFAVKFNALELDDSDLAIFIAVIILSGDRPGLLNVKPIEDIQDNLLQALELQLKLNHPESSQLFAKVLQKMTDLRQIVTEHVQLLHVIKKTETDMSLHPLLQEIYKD
# PROCEDURE DETAILS: GAL4-PPAR chimera transactivation assay in CV-1 cells at 10% or 0.1% serum (Example 4)
# Format: cell-based
# RUN CONDITIONS: 0.1% serum, read-out: GAL4-chimera (rat) EC50 (μM) hPPARγ
QUANTITY NAME: EC50

Given the entry Cc1cc(C(=O)CCc2sc(-c3ccc(C(F)(F)F)cc3)nc2C(C)C)ccc1OCC(=O)O , report its measured EC50.
> 10 µM

====

# MEASURED TARGET: rat PPARγ (Rattus norvegicus)
# Construct: expressed in transfected cells; host or cells: CV-1
# Sequence (O88275 238-503 limits assumed): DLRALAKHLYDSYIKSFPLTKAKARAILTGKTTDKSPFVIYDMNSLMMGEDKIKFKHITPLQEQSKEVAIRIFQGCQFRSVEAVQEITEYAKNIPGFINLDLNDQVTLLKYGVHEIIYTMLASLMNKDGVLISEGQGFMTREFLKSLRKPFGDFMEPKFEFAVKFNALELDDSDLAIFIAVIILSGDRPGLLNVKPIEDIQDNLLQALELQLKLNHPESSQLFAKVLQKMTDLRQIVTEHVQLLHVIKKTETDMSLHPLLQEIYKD
# PROCEDURE DETAILS: GAL4-PPAR chimera transactivation assay in CV-1 cells at 10% or 0.1% serum (Example 4)
# Type: cell-based
# RUN CONDITIONS: 10% serum, read-out: GAL4-chimera (rat) EC50 (μM) hPPARγ
QUANTITY NAME: EC50

Given the entry Cc1cc(C(=O)CCc2sc(-c3ccc(C(F)(F)F)cc3)nc2C(C)C)ccc1OCC(=O)O [compound I.1] , report its measured EC50.
> 10 µM

Hello, the source for this data is patent US20110092517A1, in case you need it.
